Values from paper PMC11207052

# TGT: hNMNAT-2 (Homo sapiens)
# Construct: made in house
# Sequence (Q9BZQ4 whole entry): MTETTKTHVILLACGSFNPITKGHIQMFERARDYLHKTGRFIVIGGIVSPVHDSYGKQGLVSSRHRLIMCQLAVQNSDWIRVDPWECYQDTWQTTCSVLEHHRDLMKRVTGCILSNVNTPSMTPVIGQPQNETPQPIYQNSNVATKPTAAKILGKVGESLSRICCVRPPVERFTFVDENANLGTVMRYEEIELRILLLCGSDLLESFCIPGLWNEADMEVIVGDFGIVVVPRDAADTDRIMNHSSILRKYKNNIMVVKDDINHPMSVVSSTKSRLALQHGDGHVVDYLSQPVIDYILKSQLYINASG
# PROCEDURE SUMMARY: NMN adenylyltransferase activity assay (pyrophosphatase-coupled, malachite green), hNMNAT-2
# Assay type: biochemical
# EXPERIMENTAL CONTEXT: fixed concentration of 0.5 mM inhibitor
READOUT NAME: enzyme inhibition in the initial screening, hNMNAT-2

{"COMPOUND": "C[C@@]1(O)[C@@H](COP(=O)(O)O)O[C@@H](n2cnc3c(N)ncnc32)[C@@H]1O [3′-MeAMP (6)]", "TEST RESULT": "absence of inhibition"}
{"COMPOUND": "C[C@@]1(O)[C@@H](CO)O[C@@H](n2cnc3c(N)ncnc32)[C@@H]1O [Compound 12, 3′-MeAdo]", "TEST RESULT": "absence of inhibition"}
{"COMPOUND": "C[C@@]1(O)[C@H](O)[C@@H](CO)O[C@H]1n1cnc2c(N)ncnc21 [Compound 11, 2′-MeAdo]", "TEST RESULT": "absence of inhibition"}
{"COMPOUND": "C[C@@]1(O)[C@H](O)[C@@H](COP(=O)(O)O)O[C@H]1n1cnc2c(N)ncnc21 [2′-MeAMP (5)]", "TEST RESULT": "absence of inhibition"}

----------
# TGT: hNMNAT-3 (Homo sapiens, UniProt Q96T66)
# Construct: made in house
# Sequence (Q96T66 whole entry): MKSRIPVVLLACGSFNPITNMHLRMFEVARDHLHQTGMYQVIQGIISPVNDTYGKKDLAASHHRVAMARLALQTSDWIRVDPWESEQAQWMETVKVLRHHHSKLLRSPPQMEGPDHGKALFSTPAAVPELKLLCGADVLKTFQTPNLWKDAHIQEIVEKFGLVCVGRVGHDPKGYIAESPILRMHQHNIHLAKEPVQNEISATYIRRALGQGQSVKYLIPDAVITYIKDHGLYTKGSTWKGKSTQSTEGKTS
# PROCEDURE SUMMARY: NMN adenylyltransferase activity assay (pyrophosphatase-coupled, malachite green), hNMNAT-3
# Type: biochemical
# EXPERIMENTAL CONTEXT: ATP varied, NMN fixed (0.5 mM); inhibitor 30 and 90 µM; ± std. error; αKi in the case of uncompetitive inhibition; read-out: Ki towards ATP, hNMNAT-3
READOUT NAME: Ki (µM)
Give the value, in units of µM, as a plain number.

If you can, please state the reported Ki value of C[C@@]1(O)[C@H](O)[C@@H](COP(=O)([O-])OP(=O)(O)OC[C@H]2O[C@@H]([n+]3cccc(C(=O)O)c3)[C@H](O)[C@@H]2O)O[C@H]1n1cnc2c(N)ncnc21 [2′-MeNaAD (3)] .
223

----------
# TGT: hNMNAT-1 (Homo sapiens, UniProt Q9HAN9)
# Construct: made in house
# Sequence (Q9HAN9 whole entry): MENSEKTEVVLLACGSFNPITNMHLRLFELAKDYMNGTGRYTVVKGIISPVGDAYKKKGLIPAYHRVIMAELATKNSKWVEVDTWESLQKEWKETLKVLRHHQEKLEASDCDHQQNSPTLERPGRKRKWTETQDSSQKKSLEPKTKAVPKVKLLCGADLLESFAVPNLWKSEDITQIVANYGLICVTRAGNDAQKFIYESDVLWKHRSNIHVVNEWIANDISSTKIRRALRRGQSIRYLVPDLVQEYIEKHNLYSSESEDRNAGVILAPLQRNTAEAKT
# PROCEDURE SUMMARY: NMN adenylyltransferase activity assay (pyrophosphatase-coupled, malachite green), hNMNAT-1
# Assay type: biochemical
# EXPERIMENTAL CONTEXT: NMN varied, ATP fixed (0.5 mM); inhibitor 30 and 90 µM; ± std. error; αKi in the case of uncompetitive inhibition; read-out: Ki towards NMN, hNMNAT-1
READOUT NAME: Ki (µM)
Give the value, in units of µM, as a plain number.

If you can, please state the reported Ki value of C[C@@]1(O)[C@H](O)[C@@H](COP(=O)([O-])OP(=O)(O)OC[C@H]2O[C@@H]([n+]3cccc(C(=O)O)c3)[C@H](O)[C@@H]2O)O[C@H]1n1cnc2c(N)ncnc21 [2′-MeNaAD (3)] .
168

----------
# TGT: hNMNAT-1 (Homo sapiens)
# Construct: made in house
# PROCEDURE SUMMARY: NMN adenylyltransferase activity assay (pyrophosphatase-coupled, malachite green), hNMNAT-1
# Format: biochemical
# EXPERIMENTAL CONTEXT: ATP varied, NMN fixed (0.5 mM); inhibitor 30 and 90 µM; ± std. error; αKi in the case of uncompetitive inhibition; read-out: Ki towards ATP, hNMNAT-1
READOUT NAME: pKi
Value format note: pKi is -log10 of concentration (mol/L); just state the number.

If you can, please state the reported pKi value of `C[C@@]1(O)[C@H](O)[C@@H](COP(=O)([O-])OP(=O)(O)OC[C@H]2O[C@@H]([n+]3cccc(C(=O)O)c3)[C@H](O)[C@@H]2O)O[C@H]1n1cnc2c(N)ncnc21` .
4.09
